- Tested System: xPSM (extracellular portion of PSMA) (Homo sapiens (LNCaP cDNA), UniProt Q04609 Q04609:44-750)
- Sequence (Q04609 44-750, one chain of several): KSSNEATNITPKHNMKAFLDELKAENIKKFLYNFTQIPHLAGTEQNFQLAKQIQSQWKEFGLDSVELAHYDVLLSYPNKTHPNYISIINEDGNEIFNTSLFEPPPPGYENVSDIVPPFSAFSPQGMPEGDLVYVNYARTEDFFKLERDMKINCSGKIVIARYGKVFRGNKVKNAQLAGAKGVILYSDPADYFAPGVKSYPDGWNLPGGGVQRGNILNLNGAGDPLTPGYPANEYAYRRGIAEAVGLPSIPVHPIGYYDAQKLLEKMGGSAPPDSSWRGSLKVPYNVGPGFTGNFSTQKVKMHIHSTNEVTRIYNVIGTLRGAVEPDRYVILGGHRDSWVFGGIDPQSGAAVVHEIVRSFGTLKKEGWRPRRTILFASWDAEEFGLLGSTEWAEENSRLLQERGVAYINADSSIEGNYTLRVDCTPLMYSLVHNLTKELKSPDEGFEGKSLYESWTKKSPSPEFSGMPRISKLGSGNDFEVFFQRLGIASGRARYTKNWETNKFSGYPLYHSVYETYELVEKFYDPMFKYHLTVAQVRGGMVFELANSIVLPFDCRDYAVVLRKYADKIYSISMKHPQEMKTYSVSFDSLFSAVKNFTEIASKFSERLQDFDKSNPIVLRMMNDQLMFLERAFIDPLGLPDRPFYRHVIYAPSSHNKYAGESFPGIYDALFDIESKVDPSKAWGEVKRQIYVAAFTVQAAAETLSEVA
- Protocol Details: inhibition; NAALADase assay, 8 nM substrate, 37 C
- Study Conditions: tags: S-tag fusion released by enterokinase; baculovirus Sf-9 secreted
pIC50: −log10 of the molar value.
Measured Endpoint: pIC50

- GGGAGGACGAUGCGGAUCAGCCAUGUUUACGUCACUCCUUG (ssRNA, 2'-F all pyrimidines; purines 2'-OH) [xPSM1.A10-6]: < 6.15
- GGGAGGACGAUGCGGACCGAAAAAGACCUGACUUCUAUACUAAGU (ssRNA, 2'-F all pyrimidines; purines 2'-OH) [xPSM1.A9-5]: < 6.52
- xPSM1.A10-4 (ssRNA, 2'-F all pyrimidines; purines 2'-OH) RNA: GGGAGGACGAUGCGGAUCAGCCAUGUUUACGUCACUCCUUGUCAAUCCUCA: < 6.15
- xPSM1.A9-3 (ssRNA, 2'-F all pyrimidines; purines 2'-OH) RNA: GGGAGGACGAUGCGGACCGAAAAAGACCUGACUUCUAUACUAAGUCUACGUUCCC: < 6.52
- GGGAGGACGAUGCGGACCGAAAAAGACCUGACUUCUAUACUAAGUCUACG (ssRNA, 2'-F all pyrimidines; purines 2'-OH) [xPSM1.A9-4]: < 6.52
- GGGAGGACGAUGCGGAUCAGCCAUGUUUACGUCACUCCUUGUCAAU (ssRNA, 2'-F all pyrimidines; purines 2'-OH) [xPSM1.A10-5]: < 6.15
- GGGAGGACGAUGCGGACCGAAAAAGACCUGACUUCUAUAC (ssRNA, 2'-F all pyrimidines; purines 2'-OH) [xPSM1.A9-6]: < 6.52

Data provenance is patent US20020119473.
